- assayed-system: SIRT1 (Homo sapiens, UniProt Q96EB6)
- Sequence (Q96EB6 whole entry): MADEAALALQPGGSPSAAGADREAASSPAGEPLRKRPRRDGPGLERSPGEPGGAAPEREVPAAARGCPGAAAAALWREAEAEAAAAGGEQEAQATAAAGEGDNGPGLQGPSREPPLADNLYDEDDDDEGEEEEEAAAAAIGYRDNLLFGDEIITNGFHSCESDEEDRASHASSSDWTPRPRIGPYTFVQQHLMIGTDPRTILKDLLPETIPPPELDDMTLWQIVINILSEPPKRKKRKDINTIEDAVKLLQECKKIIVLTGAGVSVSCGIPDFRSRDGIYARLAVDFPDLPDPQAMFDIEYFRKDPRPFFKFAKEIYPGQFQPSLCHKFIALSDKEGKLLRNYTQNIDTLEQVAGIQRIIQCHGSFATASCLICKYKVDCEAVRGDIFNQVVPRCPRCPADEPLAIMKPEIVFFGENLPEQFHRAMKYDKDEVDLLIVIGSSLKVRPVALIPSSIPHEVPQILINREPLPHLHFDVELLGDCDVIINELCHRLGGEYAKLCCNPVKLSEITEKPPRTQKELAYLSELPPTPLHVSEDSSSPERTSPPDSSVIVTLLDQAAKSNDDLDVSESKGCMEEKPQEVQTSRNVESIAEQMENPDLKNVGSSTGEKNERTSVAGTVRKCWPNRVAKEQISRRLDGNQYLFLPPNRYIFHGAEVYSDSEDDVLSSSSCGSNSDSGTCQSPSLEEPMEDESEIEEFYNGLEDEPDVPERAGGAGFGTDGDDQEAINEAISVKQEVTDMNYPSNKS
- protocol: TAMRA based mass spectrometry assay of SIRT1 activity
- Type: biochemical
- experimental-setup: percent maximum fold activation of SIRT1; TAMRA peptide substrate; read-out: TAMRA % Fold Act
# Lookup of reported Emax keyed by entry

Solved cases below.
O=C(Nc1cnc2ccc(-c3ccccc3C(F)(F)F)nn12)c1ccncn1 = ≥ 350%
O=C(Nc1ccnc(N2CCC2)c1)c1cnc2ccc(-c3cccc(Cl)c3F)nn12 = < 350%
O=C(Nc1cnccn1)c1cnc2ccc(-c3c(F)cccc3F)nn12 = < 350%
O=C(Nc1ccnc(CN2CCOCC2)n1)c1cnc2ccc(-c3ccccc3C(F)(F)F)nn12 = ≥ 350%
O=C(Nc1ccnc(OCC(O)CO)c1)c1cnc2ccc(-c3ccccc3C(F)(F)F)nn12 (stereo not drawn) = ≥ 350%

Fill in Emax for record O=C(Nc1ccnc(N2CCC2)c1)c1cnc2ccc(-c3ccccc3C(F)(F)F)nn12 ≥ 350%

Determine from records and report Emax for Cc1cnc(C(=O)Nc2cnc3ccc(-c4ccccc4C(F)(F)F)nn23)s1 ≥ 350%

Give the reported value of Emax for this record: CS(=O)(=O)c1cccc(-c2ccc3ncc(C(=O)Nc4ccccn4)n3n2)c1 < 350%

Consider the compound O=C(Nc1ccncc1F)c1cnc2ccc(-c3ccccc3C(F)(F)F)nn12 and give its recorded Emax. ≥ 350%

Complete the entry with Emax for O=C(Nc1cccnc1)c1cnc2ccc(-c3cccc(Cl)c3F)nn12 < 350%

Specify Emax for O=C(Nc1ccnc(N2CCOCC2)c1)c1nnc2ccc(-c3ccccc3C(F)F)nn12 and stop. < 350%

Check the records and state Emax for O=C(Nc1ccncn1)c1cnc2ccc(-c3cccc(C(F)(F)F)c3)nn12 < 350%
